Hi there, I'd appreciate the recorded Time for every entry that follows.
tested on: Mus musculus; experiment: Analgesic activity in albino mouse assessed as paw licking latency at 100 mg/kg after 4 hrs by Eddy's hot plate method; format: functional
Answer as a quantity: numeral, then unit.

The following compounds have reported results that may help.
compound.structure.string: N#CCCCSc1nnc(-c2cccc(-c3cccc(Cl)c3)c2)o1
Time: 4.71 s
//
compound.structure.string: N#CCCCSc1nnc(-c2cccc(-c3ccccc3F)c2)o1
Time: 4.49 s
//
compound.structure.string: FCCCCSc1nnc(-c2cccc(-c3cccc(Cl)c3)c2)o1
Time: 6.44 s
//
compound.structure.string: COc1ccccc1-c1cccc(-c2nnc(SCCCC#N)o2)c1
Time: 5.59 s
//
compound.structure.string: COc1ccccc1-c1cccc(-c2n[nH]c(=S)o2)c1
Time: 6.28 s
//
compound.structure.string: COc1ccc(F)cc1-c1cccc(-c2nnc(SCCCCF)o2)c1
Time: 4.55 s
//
compound.structure.string: COC(=O)CCCSc1nnc(-c2cccc(-c3cccc(Cl)c3)c2)o1
Time: 5.59 s
//
compound.structure.string: COc1ccc(F)cc1-c1cccc(-c2n[nH]c(=S)o2)c1
Time: 6.35 s
//
compound.structure.string: COC(=O)CCCSc1nnc(-c2cccc(-c3ccccc3F)c2)o1
Time: 4.49 s
//
compound.structure.string: COc1ccc(F)cc1-c1cccc(-c2nnc(SCCCC#N)o2)c1
Time: 4.74 s

# batch: return Time for each of the 4 compounds below
1. Fc1ccccc1-c1cccc(-c2n[nH]c(=S)o2)c1
2. COc1ccccc1-c1cccc(-c2nnc(SCCCCF)o2)c1
3. FCCCCSc1nnc(-c2cccc(-c3ccccc3F)c2)o1
4. COC(=O)CCCSc1nnc(-c2cccc(-c3cc(F)ccc3OC)c2)o1

1. 5.04 s
2. 6.01 s
3. 4.47 s
4. 6.01 s

# batch: return Time for each of the 2 compounds below
1. S=c1[nH]nc(-c2cccc(-c3cccc(Cl)c3)c2)o1
2. COC(=O)CCCSc1nnc(-c2cccc(-c3ccccc3OC)c2)o1

5.08 s
6.21 s

The measured values listed here are drawn from ChEMBL document CHEMBL1250505.
